Hello, the source for this data is ChEMBL document CHEMBL3046110, in case you need it.

- PROTOCOL: Toxicity index, ratio of TC50 for human CEM174 cells to EC50 for Simian immunodeficiency virus
- Format: cell-based
- EXPERIMENTAL_PARAMETERS: read-out: TI
QUANTITY_KIND: selectivity ratio
Would you mind answering with just the numeric figure?

Check out these entries, answers already filled in.
[
  {
    "SMILES_RECORD": "Cc1ccc(NS(=O)(=O)c2ccc(NC(=S)Nc3ccc(Cl)cc3)cc2)cc1",
    "selectivity ratio": 19
  },
  {
    "SMILES_RECORD": "Cc1cccc(NC(=S)Nc2ccc3c(c2)C(=O)OC3)c1",
    "selectivity ratio": 1
  }
]

QUERY: # query: selectivity ratio of entry Cc1cc(NS(=O)(=O)c2ccc(NC(=S)Nc3ccc(C)c(Cl)c3)cc2)no1
RESULT: 127

QUERY: # query: selectivity ratio of entry Cc1cc(NS(=O)(=O)c2ccc(NC(=S)Nc3ccc(Cl)cc3)cc2)no1
RESULT: 9

QUERY: # query: selectivity ratio of entry Cc1cc(NS(=O)(=O)c2ccc(NC(=S)Nc3ccccc3C)cc2)no1
RESULT: 8

QUERY: # query: selectivity ratio of entry Cc1ccc(NC(=S)Nc2ccc3c(c2)C(=O)OC3)cc1Cl
RESULT: 4

QUERY: # query: selectivity ratio of entry CCN(CC)c1nc(C)c([N+](=O)[O-])c(NC(=S)Nc2cccc(Cl)c2)n1
RESULT: 8.6

QUERY: # query: selectivity ratio of entry O=C1OCc2ccc(NC(=S)Nc3ccccc3)cc21
RESULT: 28
